# System: M14 melanoma
# assay.notes: NCI-60 one-dose screen, 48 h
# stated.conditions: 10 µM unless noted
The panel holds about 83,000 compounds, 20% with a hit somewhere; the sample as a whole holds those more often. Calls of active or inactive are those of the source. How the source made its calls: active means growth percent below 10; inactive means the rest.
In this exercise, the only acceptable responses are YES = active, NO = inactive

>>> discrete_label("COc1ccc(NC(=S)/N=c2\\oc3c(OC)cccc3cc2-c2cc3ccccc3[nH]2)cc1")
"NO"
>>> discrete_label("O=C(/C=C/c1ccccc1)n1c(-c2ccc(Cl)cc2)nc2ccccc21")
"YES"
>>> discrete_label("NC(C(=O)O)C(O)c1ccc(OCc2ccccc2)c(OCc2ccccc2)c1 (stereo not given)")
"NO"
>>> discrete_label("Cc1cc(C(=O)CSc2nc3ccccc3c(=O)[nH]2)c(C)n1C")
"NO"

Alright, here's another compound for you.
Problem: For COc1cc(-c2csc(NC(=O)Nc3ccc(Cl)cc3Cl)n2)cc(OC)c1OC , what call appears in the results of this test?
Solution: NO

====

# Tested on: CCRF-CEM leukemia
# assay.notes: NCI-60 one-dose screen, 48 h (100 = growth as untreated, 0 = no growth, -100 = all killed)
# stated.conditions: 10 µM unless noted
This is part of a sample that, as a whole, favours compounds with a hit. Of some 83,000 tested, about 20% had one in any assay.
Sorting guide: entries reporting growth beneath 20% go in the t pile, the rest go in the f pile.

>>> discrete_label("Cn1c(=O)c2c(nc3n2CCN(CCc2ccc(OCCN4CCOCC4)cc2)C3)n(C)c1=O")
"f"
>>> discrete_label("Clc1nc(Cl)c2ncn(C/C=C/Cn3cnc4c(Cl)nc(Cl)nc43)c2n1")
"t"
>>> discrete_label("O=C(O)C(=Cc1c2ccccc2cc2ccccc12)C(=O)O")
"f"

Problem: Quick check: does CCN(CC)CCCC(C)N=c1cc(Nc2cc(=NC(C)CCCN(CC)CC)c3cc(OC)ccc3o2)oc2ccc(OC)cc12 (stereo not given) have growth under 20%?
Solution: t

Problem: Cool, now COc1cc(C(=O)OCCCCCCCCCCC[P+](c2ccccc2)(c2ccccc2)c2ccccc2)ccc1O
Solution: t

====

# Test system: SNB-75 CNS
# assay.notes: NCI-60 one-dose screen, 48 h
# stated.conditions: 10 µM unless noted
The panel holds about 83,000 compounds, 20% with a hit somewhere; the sample as a whole holds those more often. Activity calls are given as the source filed them. The calls were made as follows: active = growth percent below 10; inactive = the rest.
In this exercise, the only acceptable responses are y = active, n = inactive

Some entries whose results are on file:
>>> discrete_label("O=Nc1c(-c2c(O)[nH]c3ccc([N+](=O)[O-])cc23)[nH]c2ccc(O)cc12")
"y"
>>> discrete_label("C#CCC1(c2ccc(F)c(F)c2)NS(=O)(=O)c2ccccc21 (stereo unspecified)")
"n"
>>> discrete_label("CCN(CC)P(=O)(N(CC)CC)N(CCCSC/C=C(\\C)CC/C=C(\\C)CCC=C(C)C)CCCN1CCN(C)CC1")
"n"
>>> discrete_label("CSc1nc(-c2cc3ccccc3o2)cc(-c2ccc(Cl)cc2)c1C#N")
"y"
>>> discrete_label("COc1cc(C(=O)N2CCN(C(=O)c3ccco3)CC2)c(N)cc1OCc1ccccc1")
"n"
>>> discrete_label("N#CC1=C(N)n2nc(-c3ccncc3)nc2NC1c1cccc2ccccc12 (stereo unspecified)")
"n"
>>> discrete_label("CN(C)CCCNC(=O)C(c1ccccc1)c1ccccc1")
"n"
>>> discrete_label("O=c1[nH]c(CN2CCN(c3ccccc3F)CC2)nc2sc3c(c12)CCC3")
"n"
>>> discrete_label("Cc1cc(C)c(S(=O)(=O)N2CCN(c3cc4c(cc3F)c(=O)c(C(=O)O)cn4C3CC3)CC2)c(C)c1")
"n"
>>> discrete_label("COc1ccc(/C=C(\\C#N)c2ccc([N+](=O)[O-])cc2)c2ccccc12")
"y"

Alright, here's another compound for you.
Problem: For C/C1=C\CCC2(C)OC2CC2CCC(C)(O)C(CC1)C2(C)C (stereo unspecified) , what call appears in the results of this test?
Solution: n

====

# Tested on: HCT-116 colon
# assay.notes: NCI-60 one-dose screen, 48 h (100 = growth as untreated, 0 = no growth, -100 = all killed)
# stated.conditions: 10 µM unless noted
About 83,000 compounds went through this panel and 20% of them were active in at least one assay; those are over-represented in the sample as a whole.
Measured growth accompanies every entry in the list below.
Report the value in % with no unit label.

>>> value_measured("Cc1ccc(S(=O)(=O)N2CCC(C(=O)Nc3ccc(F)cc3F)CC2)cc1")
101
>>> value_measured("COC(=O)CCCCCCN=Cc1c(O)c(O)c(C(C)C)c2cc(C)c(-c3c(C)cc4c(C(C)C)c(O)c(O)c(C=NCCCCCCC(=O)OC)c4c3O)c(O)c12")
8.17
>>> value_measured("Cc1cc(Nc2nc(-c3ccncc3)nc3ccccc23)n[nH]1")
39.3
>>> value_measured("COc1cccc(-n2cc(-c3nc(Cl)c4ccccc4n3)nn2)c1")
89.5
>>> value_measured("O=C1c2ccccc2C(=O)c2c(N=Nc3sc(=O)[nH]c3S)cccc21")
95.7

Problem: Please provide the recorded growth for C=C1C(=O)O[C@H]2[C@H]1CC/C(COC(=O)NCc1cc(OC)cc(OC)c1)=C\CC[C@@]1(C)O[C@@H]21 , tested on HCT-116 colon.
Solution: -60.4

Problem: Cool, now Cc1cc2c(C(C)C)c(O)c(O)c(C=NCCCCC(=O)O)c2c(O)c1-c1c(C)cc2c(C(C)C)c(O)c(O)c(C=NCCCCC(=O)O)c2c1O
Solution: 33

Problem: Cool, now CCCCCCCCCN1C(=O)/C(=c2\sc3n(c2=O)C2C(NN=3)N(CC)C(=O)N2CC)c2ccccc21 (stereo not drawn)
Solution: 5.86

====

# Tested on: BT-549 breast
# assay.notes: NCI-60 one-dose screen, 48 h
# stated.conditions: 10 µM unless noted
Compounds without any hit were thinned out: in the full panel of roughly 83,000, 20% have a hit. Activity calls are given as the source filed them. Rule for the calls: active = growth percent below 10; inactive = the rest.
In this exercise, the only acceptable responses are YES (active), NO (inactive)

Some entries whose results are on file:
>>> discrete_label("O=C(/C=C/CN1CCOCC1)Nc1cc2c(Nc3cccc(Cl)c3F)ncnc2cc1OCCOC(F)F")
"NO"
>>> discrete_label("CCC(c1ccc(OC)cc1)C(CC)c1ccc(OCC[N+](C)(C)C)cc1 (stereo not drawn)")
"NO"
>>> discrete_label("COc1cc(/C=C/C(=O)c2ccc(NC(=O)CN3CCN(c4cc5c(cc4F)c(=O)c(C(=O)O)cn5C4CC4)CC3)cc2)cc(OC)c1OC")
"YES"
>>> discrete_label("CN(C)CCCNC(=O)C(c1ccccc1)c1ccccc1")
"NO"
>>> discrete_label("CCCCCCCN(CCCCCCC)C(=N)c1ccc(OC)c2ccccc12")
"YES"
>>> discrete_label("NC(=S)NN=C1CCCCC1")
"NO"
>>> discrete_label("COc1cccc2cc(-c3cc4ccccc4[nH]3)/c(=N/C(=S)Nc3ccccc3)oc12")
"NO"
>>> discrete_label("O=C1Nc2cc(Cl)ccc2/C1=C/c1ccc(N2CCOCC2)s1")
"NO"
>>> discrete_label("COC(=O)CC/C(C)=N\\Nc1ccc([N+](=O)[O-])cc1")
"NO"
>>> discrete_label("COc1ccc(-c2nc3sccn3c2-c2ccnc(NCCCNS(=O)(=O)c3ccc(F)cc3)n2)cc1")
"NO"

Problem: For Cc1ccc2c(c1)C(=O)C(c1c(-c3[nH]c(=O)c4ccc(C)cc4c3O)c(O)c3ccccc3c1O)=NC2=O , what call appears in the results of this test?
Solution: NO

Problem: Cool, now CCCC1OC(c2ccc(C(C)C)cc2)OCC1CC (stereo not drawn)
Solution: NO

====

# Test system: BT-549 breast
# assay.notes: NCI-60 one-dose screen, 48 h (100 = growth as untreated, 0 = no growth, -100 = all killed)
# stated.conditions: 10 µM unless noted
This is part of a sample that, as a whole, favours compounds with a hit. Of some 83,000 tested, about 20% had one in any assay.
result.type: growth (%)
Report the value in % with no unit label.

>>> value_measured("COc1ccc(C(=O)/C=C/c2cc(C(=O)c3cc(OC)c(OC)c(OC)c3)ccc2OC)cc1")
73.7
>>> value_measured("O=C(c1ccccc1)C(Cl)C(Cl)c1ccccc1 (stereo not given)")
96.5
>>> value_measured("CC(=O)/C=C/c1cc2cc(Cl)ccc2[nH]c1=O")
65.5
>>> value_measured("CC(=O)Nc1nc(C(=O)N2N=C(C)/C(=C/c3ccc(Cl)cc3)C2=O)cs1")
97.4
>>> value_measured("C#CCC1(c2ccc(F)c(F)c2)NS(=O)(=O)c2ccccc21 (stereo not given)")
110

Problem: May I ask what growth has been recorded for COc1cc(/C=C2\CCCC3=C2NC(C)=NC3c2cc(OC)c(OC)c(OC)c2)cc(OC)c1OC (stereo not given) ?
Solution: 2.96

Problem: Cool, now O=C(O)C(=Cc1c2ccccc2cc2ccccc12)C(=O)O
Solution: 105

Problem: Cool, now Cn1c(=O)c2c(nc3n2CCN(CCc2ccc(OCCN4CCOCC4)cc2)C3)n(C)c1=O
Solution: 109

Problem: Cool, now Cc1cc(Nc2nc(-c3ccncc3)nc3ccccc23)n[nH]1
Solution: 82.7

Problem: Cool, now Cn1c(C(N)=O)cc2c1-c1nc(NC3CCCCC3)ncc1CCC2
Solution: 80.7
